src = ChEMBL document CHEMBL1141340

assay: Inhibition of PP1c
Recorded pIC50 values for a group of molecules are listed next.
pIC50 is defined as minus the log10 of a concentration measured in mol/L.

Worked cases, pIC50 given:
Molecule: CC1=CCCC(C)(C)C1CC/C(C)=C/CCC(CCCc1ccoc1)COS(=O)(=O)O (stereo not drawn) [HIPPOSULFATE C]
Recorded Endpoint: pIC50
Recorded Measurement: 4.15
//
Molecule: C[C@@H]1CC[C@@H]2C(=CCCC2(C)C)[C@]1(C)CCC(CCCc1ccoc1)COS(=O)(=O)O (stereo partly drawn)
Recorded Endpoint: pIC50
Recorded Measurement: 4.19

Read the next record carefully.
The molecule listed as C[C@@H]1CC[C@@H]2C(=CCCC2(C)C)[C@]1(C)CCC(CCCc1ccoc1)COP(=O)(O)O (stereo partly drawn) shows pIC50 equal to 4.44

---

Recorded measurements of IC50, one per entry
test: Inhibition of calcineurin
Form entry: value (µM) — number only.

Molecule: C[C@@H]1CC[C@@H]2C(=CCCC2(C)C)[C@]1(C)CCC(CCCc1ccoc1)COP(=O)(O)O (stereo not given in full)
IC50, µM: 230
--
Molecule: CC1=CCCC(C)(C)C1CC/C(C)=C/CCC(CCCc1ccoc1)COP(O)(O)=S (stereo not given)
IC50, µM: 70

Notebook: CC1=CCCC(C)(C)C1CC/C(C)=C/CCC(CCCc1ccoc1)COS(=O)(=O)O (stereo not given) [HIPPOSULFATE C] , IC50 read as 66

Looking up C[C@@H]1CC[C@@H]2C(=CCCC2(C)C)[C@]1(C)CCC(CCCc1ccoc1)COS(=O)(=O)O (stereo not given in full) , I found its IC50 recorded as 69

CC(C)CCN1CC=C(CCCC(CC[C@@]2(C)C3=CCCC(C)(C)[C@@H]3CC[C@H]2C)COS(=O)(=O)O)C1=O (stereo not given in full) [IREGULARASULFATE] has a reported IC50 of 59
